Consider the following sequences and their measured shrunken log2 fold change readings.
tested on: Escherichia coli TOP10; assay: shrunken log2 fold change of peptide-encoding DNA abundance (4.5 h post-induction vs induction); higher = less antimicrobial activity (less host growth inhibition); conditions: time post-induction: 4.5 h; library: site-saturation at positions 5, 18, 19, 20;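 also: peptides expressed intracellularly from a pBAD plasmid library in pooled LB shake-flask culture, induced with 0.3% L-arabinose, DNA abundance read by NGS, three biological replicates, DESeq2 with apeglm shrinkage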
Please respond with just the number, no unit label.

{"monomerSequence": "RRIRVRPPRLPRPRPRPPCIPRP", "shrunken log2 fold change": -0.00689}
{"monomerSequence": "RRIRKRPPRLPRPRPRPCVQPRP", "shrunken log2 fold change": -0.038}

Problem: // lookup shrunken log2 fold change for RRIRCRPPRLPRPRPRPYGHPRP
Solution: -0.0546

Problem: // same read-out, input: RRIRARPPRLPRPRPRPCDPPRP
Solution: -0.106

Problem: // same read-out, input: RRIRRRPPRLPRPRPRPRMAPRP
Solution: 0.294

Problem: // same read-out, input: RRIRVRPPRLPRPRPRPWNHPRP
Solution: -0.152

Problem: // same read-out, input: RRIRARPPRLPRPRPRPDYIPRP
Solution: 0.00625

Problem: // same read-out, input: RRIRPRPPRLPRPRPRPSVGPRP
Solution: -0.295

Problem: // same read-out, input: RRIRQRPPRLPRPRPRPTVQPRP
Solution: 0.226

Problem: // same read-out, input: RRIRIRPPRLPRPRPRPAKYPRP
Solution: -0.247

Problem: // same read-out, input: RRIRERPPRLPRPRPRPDSAPRP
Solution: -0.213
